target: full-length recombinant human NEK7 (Homo sapiens (Human), UniProt Q8TDX7); assay: NEK7 Enzymatic Assay ([33P]-ATP, casein substrate)
Sequence (Q8TDX7 whole entry): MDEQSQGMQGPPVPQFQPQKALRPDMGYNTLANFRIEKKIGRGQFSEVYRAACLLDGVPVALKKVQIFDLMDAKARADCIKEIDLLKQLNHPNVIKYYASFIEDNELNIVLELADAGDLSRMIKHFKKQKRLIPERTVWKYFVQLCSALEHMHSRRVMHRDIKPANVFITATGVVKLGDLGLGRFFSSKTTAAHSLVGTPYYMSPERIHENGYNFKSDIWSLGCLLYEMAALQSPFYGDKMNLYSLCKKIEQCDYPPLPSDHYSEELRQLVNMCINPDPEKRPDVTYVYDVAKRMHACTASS
assay_endpoint: IC50

// known answers, use as guide
compound	measurement
CC(C)(C)c1cc(NC(=O)NC2CC=C(c3cn(C4CC4)c4ncnc(N)c34)CC2)on1 (stereo not shown) [Example 15]	> 1500 nM
CCc1cc(NC(=O)Nc2ccc(-c3cn(C4CC4)c4ncnc(N)c34)cc2F)on1 [Example 33]	< 150 nM
CCC(C)c1cc(NC(=O)Nc2ccc(-c3cn(C4CC4)c4ncnc(N)c34)cc2F)on1 (stereo not shown) [Example 30]	151 to 300 nM

Then this compound:
For record CC(C)(C)c1cc(NC(=O)Nc2ccc(-c3cn(C4CC4)c4ncnc(N)c34)cn2)on1 [Example 3] the listed IC50 is < 150 nM

Reference for the values: patent US11161852B1
